SYSTEM_TESTED: T1, Smad7 PY peptide Ac-ELESPPPPYSRYPMD-NH2 (203-217) (human)
T1 peptide: Ac-ELESPPPPYSRYPMD-NH2
EXPERIMENT_SUMMARY: ITC
MEASURED_METRIC: stoichiometry N

1) Nedd4L WW3-WW4 pair (domain or fragment) SFLPPGWEMRIAPNGRPFFIDHNTKTTTWEDPRLKFPVHMRSKTSLNPNDLGPLPPGWEERIHLDGRTFYIDHNSKITQWEDPRL; 1
2) SFLPPGWEMRIAPNGRPFFIDHNTKTTTWEDPRL (domain or fragment) [Nedd4L WW3 domain]; 1
3) GPLPPGWEERIHLDGRTFYIDHNSKITQWEDPRL (domain or fragment) [Nedd4L WW4 domain]; 1
4) Nedd4L WW2-WW3 pair (domain or fragment) TPGLPSGWEERKDAKGRTYYVNHNNRTTTWTRPIMQLAEDGASGSATNSNNHLIEPQIRRPRSLSSPTVTLSAPLEGAKDSPVRRAVKDTLSNPQSPQPSPYNSPKPQHKVTQSFLPPGWEMRIAPNGRPFFIDHNTKTTTWEDPRL; 2 equivalents of peptide per protein

Just for reference, paper PMC3472128 is where these values come from.
